assay: Quantitative High-Throughput drug screen in 47 multiple myeloma cell lines against the NCATS MIPE library collection: PE2_PLB cell viability assay (AID 1919869); settings: PE2_PLB myeloma cells viability, ATP luminescence, 48 h; series mostly up to 45.8 µM; also: nearly all actives have a fitted effect of over 35% in size
Results filed as inconclusive are left out. Active and inactive are the calls of the source. Calls follow the shape of the dose curve; as a rule, active = well fitted cell-killing curve with a large enough effect; inconclusive = small, poorly fitted or top-dose-only effect, or effect the other way; inactive = no such curve, though single readings can be large or run the other way.
# output must be one of active, inactive

How did this test come out for `O=C(Nc1ccc(Oc2ccnc3[nH]ccc23)c(F)c1)c1cccn(-c2ccc(F)cc2)c1=O` ?
inactive

How did this test come out for C=CC(=O)Nc1cccc(Nc2nc(NC3CCC(N(C)C)CC3)nc3c2ncn3C(C)C)c1 (stereo unspecified) ?
active

How did this test come out for `CC1(C)[C@H](O[C@H]2O[C@H](C(=O)O)[C@@H](O)[C@H](O)[C@H]2O[C@@H]2O[C@H](C(=O)O)[C@@H](O)[C@H](O)[C@H]2O)CC[C@@]2(C)[C@H]1CC[C@]1(C)[C@H]2C(=O)C=C2[C@H]3C[C@@](C)(C(=O)O)CC[C@]3(C)CC[C@]21C` ?
inactive

How did this test come out for `Cc1ccc([N+](=O)[O-])cc1S(=O)(=O)N(C)N=Cc1cnc2ccc(Br)cn12` ?
active

How did this test come out for Cc1noc(-c2ccc(CSCCC(=O)O)cc2)c1NC(=O)OC(C)c1ccccc1Cl (stereo unspecified) ?
inactive

How did this test come out for `COC(=O)[C@@H]1CC2=CC(=O)CC[C@]2(C)[C@@]23O[C@@H]2C[C@@]2(C)[C@H](CC[C@@]24CCC(=O)O4)[C@@H]13` ?
inactive

How did this test come out for `CC(=O)OCC(=O)[C@@]1(O)CC[C@H]2[C@@H]3CCC4=CC(=O)CC[C@]4(C)[C@@H]3C(=O)C[C@@]21C` ?
inactive

How did this test come out for `C#C[C@]1(O)CC[C@@H]2[C@@H]3CCC4=CC(=O)CC[C@@H]4[C@H]3CC[C@@]21CC` ?
inactive

How did this test come out for `C[C@@H](Oc1ccc2[nH]nc(C=Cc3cnn(CCO)c3)c2c1)c1c(Cl)cncc1Cl` ?
active

How did this test come out for COc1cc(C)c(Sc2cnc(NC(=O)c3ccc(CNC(C)C(C)(C)C)cc3)s2)cc1C(=O)N1CCN(C(C)=O)CC1 (stereo unspecified) ?
active

How did this test come out for `NC[C@H]1O[C@H](O[C@H]2[C@@H](O)[C@@H](O[C@H]3O[C@H](CO)[C@@H](O)[C@H](N)[C@@H]3O)[C@H](N)C[C@@H]2N)[C@H](N)C[C@H]1O` ?
inactive

How did this test come out for `N#CC(=Cc1ccc(O)c(O)c1)C(=O)NCc1ccccc1` ?
active

How did this test come out for `CNC(=O)c1cccc(-c2ccc3c(N4CCOC[C@H]4C)nc(N4CCOC[C@H]4C)nc3n2)c1` ?
active

How did this test come out for CN(N=O)C(=O)N[C@H]1C(O)OC(CO)[C@@H](O)[C@H]1O (stereo partly specified) ?
inactive

How did this test come out for `C=CC(=O)Nc1ccc2ncnc(Nc3ccc(OCc4cccc(F)c4)c(Cl)c3)c2c1` ?
active

How did this test come out for `CN[C@H]1[C@@H](O)[C@@H]2O[C@@H]3O[C@H](C)CC(=O)[C@]3(O)O[C@@H]2[C@@H](NC)[C@H]1O` ?
active

How did this test come out for `CC(C=CC(=O)NO)=C[C@@H](C)C(=O)c1ccc(N(C)C)cc1` ?
active

How did this test come out for `C[C@@H](Cc1cc2c(c(C(N)=O)c1)N(CCCO)CC2)NCCOc1ccccc1OCC(F)(F)F` ?
inactive

How did this test come out for `COc1cc(OC)c(NC(=O)Nc2cc(C)on2)cc1Cl` ?
inactive

How did this test come out for C#CCC(Cc1cnc2nc(N)nc(N)c2n1)c1ccc(C(=O)N[C@@H](CCC(=O)O)C(=O)O)cc1 (stereo partly specified) ?
active

How did this test come out for `CC(=O)OCC(=O)[C@@]12N=C(C)O[C@H]1C[C@H]1[C@@H]3CCC4=CC(=O)C=C[C@]4(C)[C@@H]3[C@@H](O)C[C@@]12C` ?
inactive

How did this test come out for `Cc1[nH]c(C=C2C(=O)Nc3ccccc32)c(C)c1CCC(=O)O` ?
active

How did this test come out for `COc1ccc(C(C)=O)c(O)c1` ?
inactive

How did this test come out for `C[C@@H]1[C@H](C)CC[C@]2(C(=O)O)CC[C@]3(C)C(=CC[C@@H]4[C@@]5(C)C[C@@H](O)[C@H](O)[C@@](C)(CO)[C@H]5CC[C@]43C)[C@@H]12` ?
inactive

How did this test come out for `Cc1ncc(-c2ccnc(Nc3ccc(S(C)(=O)=O)cc3)n2)n1C(C)C` ?
active

How did this test come out for `C[C@H](NCc1ccc2c(c1)nc(NC(=O)c1ccc(-c3cn[nH]c3)s1)n2CCc1ccccc1)C(C)(C)C` ?
active

How did this test come out for `CC[C@H]1OC(=O)[C@H](C)[C@@H](O[C@H]2C[C@@](C)(OC)[C@@H](O)[C@H](C)O2)[C@H](C)[C@@H](O[C@@H]2O[C@H](C)C[C@H](N(C)C)[C@@H]2O)[C@](C)(OC)C[C@@H](C)C(=O)[C@H](C)[C@@H](O)[C@]1(C)O` ?
inactive

How did this test come out for `CC(=O)O[C@H]1C[C@@H]2CC[C@H]3[C@H]4C[C@H]([N+]5(C)CCCCC5)[C@@H](OC(C)=O)[C@@]4(C)CC[C@@H]3[C@@]2(C)C[C@H]1N1CCCCC1` ?
inactive

How did this test come out for O=C1NC(O)CCN1[C@@H]1O[C@H](CO)[C@H](O)[C@H]1O (stereo partly specified) ?
inactive

How did this test come out for O=C(O)CCCCC(CCSCc1ccccc1)SCc1ccccc1 (stereo unspecified) ?
inactive

How did this test come out for C[C@](Cc1c[nH]c2ccccc12)(NC(=O)OC1C2CC3CC(C2)CC1C3)C(=O)NC[C@H](NC(=O)CCC(=O)O)c1ccccc1 (stereo partly specified) ?
inactive

Just for reference, PubChem BioAssay (NCATS) is where these values come from.
